experiment: Inhibition of heme crystallization to hemozoin; assay type: functional
RECORDED METRIC: IC50 (µM)
Quick reminder: number only, in µM, skip the unit.

Known results for compounds:
In [3]: df
Out[3]:
                                   compound  unit_tag  endpoint_result
0  CCn1cc/c(=N\c2ccc(-c3ccccc3)cc2)c2ccc(C(F)(F)F)cc21        µM               17
1  CCN(CC)CCCC(C)Nc1ccnc2cc(Cl)ccc12 (stereo unspecified)        µM              6.6
2  CCn1cc/c(=N\c2ccc(Oc3cccc(OC(F)(F)F)c3)cc2)c2ccc(Cl)cc21        µM             15.4
3  CCn1cc/c(=N\c2ccc(Oc3ccc(Cl)cc3)cc2)c2ccc(Cl)cc21        µM             16.2
4  CCn1cc/c(=N\c2ccc(-c3ccccc3)cc2)c2ccc(Cl)cc21        µM             18.9

Now consider the entry below.
Lookup: What does the record list as IC50 for `CCn1cc/c(=N\c2ccc(Oc3ccc(OC(F)(F)F)cc3)cc2)c2ccc(Cl)cc21` ?
Found: 13.5
